self-cleavage for assorted variants
B1: HDV Ribozyme (parent)
chain: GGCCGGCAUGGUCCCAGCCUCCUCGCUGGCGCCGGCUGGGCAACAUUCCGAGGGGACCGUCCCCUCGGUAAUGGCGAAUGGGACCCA

Variants of: B1
Experiment: self-cleavage, relative activity (ratio to wild type); higher = more cleavage; co-transcriptional
Property: self-cleavage

[[record]]
mut = "A45C G55A"
recorded_measurement = 0.554

[[record]]
mut = "C26U G68A"
recorded_measurement = 1.02

[[record]]
mut = "G40U G54U"
recorded_measurement = 0.665

[[record]]
mut = "G38A A70C"
recorded_measurement = 0.177

[[record]]
mut = "U9G A87G"
recorded_measurement = 1.15

[[record]]
mut = "C36G G59C"
recorded_measurement = 0.0755

[[record]]
mut = "G11C A87U"
recorded_measurement = 0.453

[[record]]
mut = "C33G U79G"
recorded_measurement = 0.0665

[[record]]
mut = "G1A U60C"
recorded_measurement = 0.166

[[record]]
mut = "C21G G31C"
recorded_measurement = 0.147

[[record]]
mut = "C44U A87G"
recorded_measurement = 0.554

[[record]]
mut = "G38A C85A"
recorded_measurement = 0.104

[[record]]
mut = "G29A U79A"
recorded_measurement = 0.166

[[record]]
mut = "G31U C66A"
recorded_measurement = 0.45

[[record]]
mut = "U47C C57G"
recorded_measurement = 0.677

[[record]]
mut = "C85U A87U"
recorded_measurement = 0.956

[[record]]
mut = "C61U C84A"
recorded_measurement = 0.992

[[record]]
mut = "C36G G68U"
recorded_measurement = 0.0615

[[record]]
mut = "C4A C36U"
recorded_measurement = 0

[[record]]
mut = "U37G A78G"
recorded_measurement = 0

[[record]]
mut = "G17C C62U"
recorded_measurement = 0.405

[[record]]
mut = "G11U C86A"
recorded_measurement = 0.489

[[record]]
mut = "C24A U79A"
recorded_measurement = 0.227

[[record]]
mut = "G31C C33U"
recorded_measurement = 0.123

[[record]]
mut = "G1A A42U"
recorded_measurement = 0.123

[[record]]
mut = "U47G U69G"
recorded_measurement = 0.776

[[record]]
mut = "C7U A83U"
recorded_measurement = 0.0852

[[record]]
mut = "C36U G73U"
recorded_measurement = 0.0692

[[record]]
mut = "G2A C75U"
recorded_measurement = 0.0715

[[record]]
mut = "C33U G73A"
recorded_measurement = 0.554

[[record]]
mut = "C26U C30G"
recorded_measurement = 0.0941

[[record]]
mut = "C4G C62A"
recorded_measurement = 0.446

[[record]]
mut = "C63U C66A"
recorded_measurement = 0.978

[[record]]
mut = "C14A G17U"
recorded_measurement = 0.199

[[record]]
mut = "G6C G11C"
recorded_measurement = 0.138

[[record]]
mut = "C32G C41G"
recorded_measurement = 0.0665

[[record]]
mut = "G5A G52C"
recorded_measurement = 0.253

[[record]]
mut = "A45U A56C"
recorded_measurement = 0.806

[[record]]
mut = "G5C G52A"
recorded_measurement = 0.252

